# System: MTOR
# Experimental Parameters: concentration: 1 μM, replicates: in singlicate; n = 1;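 also: KINOMEscan kinase panel screen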
Parameter Measured: %Inh (%)
Form entry: value (%) — number only.

{"Line Notation": "CCn1c(-c2ccncc2)nc2cnccc21", "Parameter Measured": "%Inh", "Value Units": "%", "Value Reported": 0}

API: the following record is the query input.
Req: If you can, please state the reported %Inh value of C[C@@H]1CCN(C(=O)CO)C[C@@H]1N(C)c1ncnc2[nH]ccc12 .
Resp: 55

###

# Tested on: YSK4
# Construct: gene MAP3K19
# Experimental Parameters: concentration: 1 μM, replicates: in singlicate; n = 1
This listing pairs compounds with measured %Inh.
Could you give me the number in %? Just the number is fine.

Please review the entries below; each comes with its answer.
{"Compound": "Cc1ccc(O)cc1Nc1cc(C(F)(F)F)nc2ccc(-c3ccncc3)cc12 [GW630823]", "System Under Test": "YSK4", "Value Reported": 0}
{"Compound": "Cn1cc(-c2ccc3c(c2)CCN3C(=O)Cc2cccc(C(F)(F)F)c2)c2c(N)ncnc21 [GSK2606414]", "System Under Test": "YSK4", "Value Reported": 34}
{"Compound": "CC(C)N1CCC(n2cnc(-c3ccc(F)cc3)c2-c2ccnc(N)n2)CC1 [SB-223132]", "System Under Test": "YSK4", "Value Reported": 0}
{"Compound": "O=c1cc(N2CCOCC2)nc2n(Cc3cccc(Cl)c3)ccn12 [GSK2296823]", "System Under Test": "YSK4", "Value Reported": 19}
{"Compound": "COc1cc2c(Nc3cccc(NC(=O)c4ccccc4)c3)ncnc2cc1OCCCN1CCOCC1 [GSK223810]", "System Under Test": "YSK4", "Value Reported": 36}
{"Compound": "CN1CCC(n2cnc(-c3ccc(F)cc3)c2-c2ccnc(NC3CCNCC3)n2)CC1 [SB-229482]", "System Under Test": "YSK4", "Value Reported": 0}
{"Compound": "Nc1nccc2scc(-c3ccc4c(c3)CCN4C(=O)Cc3cc(F)ccc3F)c12 [GSK2587663]", "System Under Test": "YSK4", "Value Reported": 32}
{"Compound": "Clc1ccc(-c2cc(-c3c[nH]nc3-c3ccccn3)ccn2)cc1 [GW681251]", "System Under Test": "YSK4", "Value Reported": 0}

Next compound, %Inh to be filled in.
Req: May I ask what %Inh has been recorded for CN1c2ccc(-c3ccc(C(=O)NCCO)cc3)cc2-c2[nH]ncc2S1(=O)=O ?
Resp: 8

###

# Tested on: CAMK1
# Experimental Parameters: concentration: 1 μM, replicates: in singlicate; n = 1
Parameter Measured: %Inh (%)
All answers are understood in %, so give the number only.

{"Line Notation": "Cl.O=S(=O)(c1cccc(F)c1)c1ccc(Nc2ncnc3cc(Br)sc23)cc1Cl", "Parameter Measured": "%Inh", "Value Reported": 2}
{"Line Notation": "CCc1nc(-c2cccc(C)c2)c(-c2ccnc(NC(=O)c3ccccc3)c2)s1", "Parameter Measured": "%Inh", "Value Reported": 13}
{"Line Notation": "CN1CCC(n2cnc(-c3ccc(F)cc3)c2-c2ccnc(NC3CCNCC3)n2)CC1", "Parameter Measured": "%Inh", "Value Reported": 0}

Req: Please report the recorded %Inh for COc1ccc(NC(=O)c2ccc(-c3cc(-c4nnc(C)o4)ccc3C)cc2)cc1 .
Resp: 4

Req: What would you report for Cl.c1ccc(Cn2ccc3cc(Nc4ncnc5ccccc45)ccc32)cc1 ?
Resp: 24

Req: Record: Cc1ccc(O)cc1Nc1cc(C(F)(F)F)nc2ccc(-c3ccncc3)cc12
Resp: 8

Req: Then Nc1nccc2scc(-c3ccc4c(c3)CCN4C(=O)Cc3cc(F)ccc3F)c12 ?
Resp: 29

Req: Moving on to the next molecule: Cc1cccc(-c2nc(Nc3ccc4[nH]nnc4c3)c3ccccc3n2)n1
Resp: 0

Req: Then this molecule: NC(=O)c1sc(-n2cnc3ccccc32)cc1OCc1ccccc1F
Resp: 0
